test system: HT-29; test: NCI tumour cell line growth inhibition, 48 h
The source made the active and inactive calls. Cut-off read from the data, not from the text of the source: active = GI50 up to about 1.1 µM and inactive = higher.
recorded endpoint: GI50

- compound: "CC(=O)OCC1OC(n2c(-c3ccc(N)cc3)cc(-c3ccco3)c(C#N)c2=O)C(OC(C)=O)C(OC(C)=O)C1OC(C)=O (stereo not given)"
  recorded endpoint: "GI50"
  readout value: "> 50 µM (inactive)"
- compound: "CC1N(C)C(=O)OC12CCN(CCCC(=O)c1ccc(F)cc1)CC2 (stereo not given)"
  recorded endpoint: "GI50"
  readout value: "> 100 µM (inactive)"
- compound: "CC(=O)CC(=O)Nc1ccc2ccccc2c1"
  recorded endpoint: "GI50"
  readout value: "> 100 µM (inactive)"
- compound: "Brc1ccc2[nH]cc(-c3csc(-c4ccccn4)n3)c2c1"
  recorded endpoint: "GI50"
  readout value: "5.12 µM (inactive)"
- compound: "COc1cc(/C=C2\\C(=O)N(C(=O)Cc3ccccc3)N=C2C)cc(OC)c1OC"
  recorded endpoint: "GI50"
  readout value: "> 100 µM (inactive)"
- compound: "COc1cc(/C=N/N=C2NCCCN2)ccc1O"
  recorded endpoint: "GI50"
  readout value: "> 100 µM (inactive)"
- compound: "Cc1ccc(Sc2cc([N+](=O)[O-])cc(Sc3ccc(C)cc3)c2Sc2ccc(C)cc2)cc1"
  recorded endpoint: "GI50"
  readout value: "> 100 µM (inactive)"
- compound: "N#CC(C(=O)/C(=N\\NC(N)=O)C(C#N)c1ccc(Cl)cc1)c1ccc(Cl)cc1 (stereo not given)"
  recorded endpoint: "GI50"
  readout value: "> 100 µM (inactive)"
- compound: "CCCCCCCCCCCCCCCCOCC(COP(=O)([O-])OCC[N+](C)(C)C)OCCCCCCCCCCCCCCCC (stereo not given)"
  recorded endpoint: "GI50"
  readout value: "> 100 µM (inactive)"
- compound: "CCOC(=O)c1ccc(C(=O)/C(C#N)=C2\\CCCN2C)[nH]1"
  recorded endpoint: "GI50"
  readout value: "> 100 µM (inactive)"

* * *

tested on: SF-295; test: NCI tumour cell line growth inhibition, 48 h
Activity calls are given as the source filed them. No stated cut-off is given here; in the data, active = GI50 up to about 1.1 µM and inactive = higher.
Outcomes: true for active, false for inactive

- molecule: "COC1=CC(O)(CC(N)=O)c2ccccc2C1=O (stereo not given)"
  assigned class: "false"
- molecule: "COc1cc(Cc2nccc3cc(OC)c(OC)cc23)c(/N=N/N(C)C)cc1OC"
  assigned class: "false"
- molecule: "C1CCNCC1.S=C(S)N1CCCCC1"
  assigned class: "false"
- molecule: "CCOc1cc(NC(C)=O)ccc1C(=O)NN1C(=O)/C(=C/c2ccc(Cl)cc2)N=C1c1ccccc1"
  assigned class: "false"
- molecule: "CC(C)NC(=O)OCc1c(COC(=O)NC(C)C)n(C)c2c1ccc1ccccc12"
  assigned class: "false"
- molecule: "CCOP(=O)(OCC)C(Nc1ccc(F)cc1)c1ccccc1 (stereo not given)"
  assigned class: "false"
- molecule: "O=C(Nc1ccc([N+](=O)[O-])cc1[N+](=O)[O-])C(=O)C(C(=O)c1ccc2ccccc2c1)C1OC(=O)c2ccccc21 (stereo not given)"
  assigned class: "false"
- molecule: "O=C(/C=C/c1ccccc1F)C(c1ccccc1)c1ccccc1"
  assigned class: "false"
- molecule: "NS(=O)(=O)c1ccc(NC(=S)NC(=O)Nc2ccc(Cl)c(Cl)c2)cc1"
  assigned class: "false"
- molecule: "CCOC(=O)C(Cc1ccc(N(CCCl)CCCl)cc1)NC(=O)C(Cc1ccccc1)NC(C)=O (stereo not given)"
  assigned class: "true"

* * *

system: Hs-578T; test: NCI tumour cell line growth inhibition, 48 h
Calls of active or inactive are those of the source. Rule as the data show it: active = GI50 up to about 1.1 µM and inactive = higher. Starred links: 1 amine or outer side, 2 acyl side, 3 side chain; linkers in the order of their positions; H or OH if unused. Positions of bridges follow the written chain, without caps; N, C: chain ends. Non-standard residues stand in square brackets, D forms with d. Residues, ends and D or L forms follow the SMILES beside them. ξ: configuration not given here. *: point of attachment. γ4hArg(2R,3R-(OH)2) = N=C(N)NCCC[C@H](N[*:1])[C@@H](O)[C@@H](O)C(=O)[*:2]; Gln(3S,4R-Me2) = C[C@H]([C@H](N)C(=O)O)[C@@H](C)C(N)=O; X50 = CC(C)C[C@H](C)[C@@H](O)[C@@H](C)C(=O)*; X51 = COC(c1ccc(O)cc1)C(N[*:1])C(=O)[*:2]; NMeQ = CN[C@@H](CCC(N)=O)C(=O)O; Thr(3ξ) = CC(O)[C@H](N)C(=O)O; NMeA = CN[C@@H](C)C(=O)O
Labels: 1 for active, 0 for inactive

- compound: "S=C1CC(c2ccccc2)Sc2cc(Cl)ccc2N1 (stereo unspecified)"
  assigned class: 0
- compound: "CCN(CC)C(=S)SS(=O)(=O)c1ccc(N)cc1"
  assigned class: 0
- compound: "O=C(Cn1c2ccc(Br)cc2c2nc3ccccc3nc21)NNC(=S)NC1CCCCC1"
  assigned class: 0
- compound: "CCOC1=C(c2ccccc2)N2CCCCC2O1 (stereo unspecified)"
  assigned class: 0
- compound: "O=S(=O)(O)C(c1ccccc1)C(O)c1ccccc1 (stereo unspecified)"
  assigned class: 0
- compound: "CCOc1nnnc2[nH]cnc12"
  assigned class: 0
- compound: "CNC(=O)C(C)NC(=O)C(Cc1ccccc1)NC(=O)OC(C)(C)C (stereo unspecified)"
  assigned class: 0
- compound: "O=C(Nc1ccc(F)cc1)c1cc2ccc(O)cc2o/c1=N\\c1ccccc1F"
  assigned class: 0
- compound: "CC(C)(C)c1ccc(O)c(C(O)c2ccccn2)c1 (stereo unspecified)"
  assigned class: 0
- compound: "Cc1c2oc3c(C)cc(F)c(C(=O)NC4C(=O)NC(C(C)C)C(=O)N5CCCC5C(=O)N(C)CC(=O)N(C)C(C(C)C)C(=O)OC4C)c3nc-2c(C(=O)NC2C(=O)NC(C(C)C)C(=O)N3CCCC3C(=O)N(C)CC(=O)N(C)C(C(C)C)C(=O)OC2C)c(N)c1=O (stereo unspecified)"
  assigned class: 1
- compound: "CN(C)CCOC(=O)c1ccc(N)cc1"
  assigned class: 0
- compound: "Nc1cccc(OCC2CCCN3CCCCC23)c1 (stereo unspecified)"
  assigned class: 0
- compound: "COc1ccc(OC)c(C2CCc3cnc4nc(N)nc(N)c4c3C2)c1 (stereo unspecified)"
  assigned class: 0
- compound: "Cc1ccc2c(c1)C(=O)c1ccc(C)nc1C2=O"
  assigned class: 0
- compound: "C=C1C(=O)OC2C1CCC(C)C1(O)C=CC(=O)C21C (stereo unspecified)"
  assigned class: 0
- compound: "COc1ccc2c(c1C)C(=O)C(O)(CC=C(C)C)O2 (stereo unspecified)"
  assigned class: 0
- compound: "O=C1C(=CNC(=S)c2ccccc2)C(=O)c2ccccc21"
  assigned class: 0
- compound: "CC(C)c1ccc(C2NC(S)=NC3=C2c2ccccc2C3=O)cc1 (stereo unspecified)"
  assigned class: 0
- compound: "O=S1(=O)c2ccccc2N(c2ccccc2)c2nnnn21"
  assigned class: 0
- compound: "COc1cc2c(cc1OC)C1CN3C(=O)CCC3C(O)C1c1cc(OC)c(OC)cc1-2 (stereo unspecified)"
  assigned class: 0
- compound: "N#CC1=C(N)Nc2nc3ccccc3n2C1c1ccccc1 (stereo unspecified)"
  assigned class: 0
- compound: "Cc1ccc(S(=O)(=O)Oc2cc(N)c3c(n2)CCC3)cc1"
  assigned class: 0
- compound: "Cc1nc2c(n1CCCl)C(=O)c1ccccc1C2=O"
  assigned class: 0
- compound: "Cc1nc(C)c(N2CCN(S(N)(=O)=O)CC2)c(O)n1"
  assigned class: 0
- compound: "COC(c1ccc(O)cc1)C1NC(=O)[C@H](CCC(N)=O)N(C)C(=O)[C@H](CC(C)C)NC(=O)[C@@H](CCCN=C(N)N)NC(=O)[C@H](C(C)O)NC(=O)[C@@H](NC(=O)[C@@H](NC(=O)[C@H](O)[C@H](O)[C@H](CCCN=C(N)N)NC(=O)[C@H](C)NC(=O)[C@H](C)[C@H](O)[C@@H](C)CC(C)C)[C@@H](C)[C@@H](C)C(N)=O)[C@@H](C)OC(=O)[C@H](C)N(C)C1=O (stereo partly drawn) (X50-A[γ4hArg(2R,3R-(OH)2)][Gln(3S,4R-Me2)]T[Thr(3ξ)][dR]L[NMeQ][X51][NMeA]; ester 4-C)"
  assigned class: 1
- compound: "COc1ccc(N2C(=O)CSC2c2cc3cc(Br)ccc3nc2Cl)cc1 (stereo unspecified)"
  assigned class: 0
- compound: "O=C(O)c1cc2ccccc2c(Cc2c(O)c(C(=O)O)cc3ccccc23)c1O"
  assigned class: 0
- compound: "Nc1nc(Cl)cc(NCC2(O)CCCC2)n1"
  assigned class: 0
- compound: "O=c1nc2n3c4c(cccc4nc-2c(=O)[nH]1)CCC3"
  assigned class: 0
- compound: "CCc1nc2ccc(/N=N/N(C)C)cc2[nH]1"
  assigned class: 0
- compound: "CCOC(=O)CN1C(=O)c2cc([N+](=O)[O-])cc3cc([N+](=O)[O-])cc(c23)C1=O"
  assigned class: 0
